Each recorded value in this set is attributed to ChEMBL document CHEMBL3632605.

Assay Summary: Aqueous solubility of compound at pH 7.4 by HPLC-UV/Vis analysis
Assay type: physicochemical
Condition Label: aqueous medium
Attribute Measured: solubility (µM)
Give the value, in units of µM, as a plain number.

Solved cases (3 shown):
1. N=C(N)c1ccc2[nH]c(-c3cccc(C4(O)CCCCC4)[n+]3[O-])cc2c1; 200
2. N=C(N)c1ccc2[nH]c(-c3cccc(N4CCCCC4)n3)cc2c1; 135
3. N=C(N)c1ccc2[nH]c(-c3cccc(C4(O)CCCCC4)n3)cc2c1; 148

Problem: What measured solubility goes with "N=C(N)c1ccc2[nH]c(-c3cccc(N4CCCCC4)c3O)cc2c1" ?
Result: 126
